# Target or system: T1, human GIP receptor (human) (UniProt P48546)
# T1 sequence (looked up): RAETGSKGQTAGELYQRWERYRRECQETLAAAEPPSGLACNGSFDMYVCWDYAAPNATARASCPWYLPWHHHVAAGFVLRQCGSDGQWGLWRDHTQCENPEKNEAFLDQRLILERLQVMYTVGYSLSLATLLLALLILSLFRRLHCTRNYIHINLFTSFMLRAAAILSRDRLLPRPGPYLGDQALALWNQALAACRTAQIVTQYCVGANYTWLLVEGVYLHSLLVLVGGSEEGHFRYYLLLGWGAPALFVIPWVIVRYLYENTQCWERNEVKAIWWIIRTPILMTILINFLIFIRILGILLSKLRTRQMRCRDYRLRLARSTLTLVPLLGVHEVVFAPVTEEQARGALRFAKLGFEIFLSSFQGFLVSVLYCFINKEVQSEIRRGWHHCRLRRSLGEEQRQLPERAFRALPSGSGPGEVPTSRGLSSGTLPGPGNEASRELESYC
# Test name: cell-based or functional assay
Readout name: Relative cAMP EC50 (pM)

Binder	Readout name	Result value
YXQGTXTSDXXILLDXKAQXXFIEYLIEGGPSSGEPPPEGSEE (non-natural residues, acylated Lys ((γGlu)2-C18 diacid), C-terminal amide; synthetic construct; SITE 2: note = 2-Aminoisobutyric Acid; SITE 6: note = alpha-methyl-2-fluoro-L-phenylalanine; SITE 10: note = 3-(4-Pyridyl)-L-alanine; SITE 11: note = alpha-methyl-L-serine; SITE 16: note = L-ornithine; SITE 17: note = Lysine is chemically modified through conjugation of the epsi) [Example 603]	Relative cAMP EC50	102
YXQGTFTSDFSXXLDKKAQXAFIEYLLEGGPSSGAPPPGGSEE (non-natural residues, C-terminal amide, acylated Lys with fatty diacid; synthetic construct; SITE 2: note = 2-Aminoisobutyric Acid; SITE 12: note = L-ornithine; SITE 13: note = alpha-methyl-leucine; SITE 17: note = Lysine is chemically modified through conjugation of the epsilon-amino group of the Lysine side chain with (gamma-Glu)2-CO-(CH2)16-CO2H; SITE 20: note = 2-Am) [Example 1047]	Relative cAMP EC50	280
YXQGTFTSDXSQXLDKKAQXAFIEYLIEXGPSSGAPPPSGTE (non-natural residues; (γGlu)2-C18 diacid on Lys; C-terminal amide; synthetic construct; SITE 2: note = 2-Aminoisobutyric Acid; SITE 10: note = 3-(4-Pyridyl)-L-alanine; SITE 13: note = alpha-methyl-leucine; SITE 17: note = Lysine is chemically modified through conjugation of the epsilon-amino group of the Lysine side chain with (gamma-Glu)2-CO-(CH2)16-CO2H; SITE 20:) [Example 1126]	Relative cAMP EC50	174
